Provide the recorded pIC50 for the entries that follow.
target: cyclophilin; assay: Cis-trans isomerase inhibitory activity (chymotrypsin-coupled Suc-AAPF-pNA cleavage, absorbance 390 nm); type: biochemical; conditions: cyclophilin, chymotrypsin, Suc-AAPF-pNA; read-out: Test Example 1: cis-trans isomerase inhibitory activity (IC50)
pIC50: −log10 of the molar value.

Below, each entry is followed by its recorded pIC50 result.
Compound	pIC50
CC(C)(C)Cc1ccc(C=Cc2cccc(O)c2C(=O)O)cc1	≥ 7.70
CCC(C)Oc1ccccc1C=C(C#N)c1ccc([N+](=O)[O-])cc1 (stereo not drawn)	5.70 to 6.70
CC(C)(C)CCc1ccc(C(C#N)=Cc2ccccc2C(=O)O)cc1	≥ 7.70

Consider the following items and state reported pIC50 for each.
1. CCCCOC(=O)c1ccccc1C=C(N)c1ccc(CC(C)(C)C)cc1
2. CC(C)(C)Cc1ccc(C=Cc2ccccc2C(=O)OCc2ccccc2)cc1
3. CC(=Cc1ccccc1C(=O)OC1CCCCC1)c1ccc(CC(C)(C)C)cc1
4. N#CC(=Cc1ccccc1CCCC1CCCCC1)c1ccc([N+](=O)[O-])cc1
5. CCCCOC(=O)c1ccccc1C=C(N)c1ccc(CC2CCCC2)cc1

1: 6.70 to 7.70; 2: ≥ 7.70; 3: 6.70 to 7.70; 4: ≥ 7.70; 5: 6.70 to 7.70

Data point: `N#CC(=Cc1ccccc1CCc1cccc(Cl)c1)c1ccc([N+](=O)[O-])cc1` ; pIC50 = 6.70 to 7.70
